# credit: PubChem BioAssay

Assay: inhibitors of TNFa-induced NFkB p65 translocation, primary screen, imaging, HUVEC, MLSMR starter and 10KST1 sets (AID 438);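 note: compound added about 3h40 before a 20 min TNFalpha stimulation; signal is the nuclear over cytoplasmic p65 intensity ratio per well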
Details: HUVEC TNFa-induced p65 nuclear translocation; at 2 µM, stronger effect = higher value, 0% TNFa-plus-vehicle, 100% no-TNFa wells
PROPERTY NAME: inhibition (%)
State the answer as a number, implicitly in %.

// below: answered molecules
Nc1nc(-c2ccccc2)cc(C(F)(F)F)n1; -7.5
CCOC(=O)Cn1c(N2CCOCC2)nc2c1c(=O)[nH]c(=O)n2C; -8.7
CC(C)N(Cc1nc(-c2ccccc2)no1)C(=O)CCCN1C(=O)c2ccccc2C1=O; -9.3
O=C(CSC1=NCCS1)NCc1ccco1; 0.2

Query: inhibition; subject: O=C(Nc1cccc2ncccc12)c1ccc2c(c1)OCCO2
2.2

Do the same for COC(=O)c1nc(N)sc1-c1ccccc1 please
7.2

Then COc1ccc(C(=O)CSc2nnc(CNc3ccc(C)cc3C)o2)cc1 ?
-4.1

And what about the molecule O=S(=O)(NCCc1ccncc1)c1cc(Br)ccc1F ?
1.9

Query Cc1ccc(NC(=O)COC(=O)c2ccn(C)n2)cc1 next
-2.1

Try this molecule next: O=C(c1cccc(C(=O)N2CCN(c3ccc(F)cc3)CC2)c1)N1CCN(c2ccc(F)cc2)CC1
1.5

Similarly, COc1cccc(CC(=O)Nn2c(C)nc3ccccc3c2=O)c1 ?
10.5

// next record O=c1oc2ccccc2n1CCc1ccccc1
-4.6

What do we get for O=P(O)(O)C(O)C(F)(F)C(F)(F)C(F)(F)C(F)F (stereo not drawn) ?
8.1

// next record CCOC(=O)c1c(NC(=O)c2cccs2)sc2c1CCN(C(=O)OCC)C2
-2

And the next one, CN1CCN(c2nc3c(c(=O)[nH]c(=O)n3C)n2CCOc2ccccc2)CC1 ?
6.2

And then CCCCc1ccc(NC(=O)C2CCCO2)cc1 (stereo not drawn) , what is it?
-1.8

Let us now turn to O=C(OCN1C(=O)c2ccccc2C1=O)c1ccc2c(=O)n3c(nc2c1)CCC3
-26.1

Another molecule to check: Cc1ccc(NC(=O)Cn2cccc2)cc1Cl
-12.9

###

Overview of reported slope across a group of compounds:
Target: Alpha-2C adrenergic receptor (Homo sapiens) (UniProt P18825)
Sequence (P18825 whole entry, looked up): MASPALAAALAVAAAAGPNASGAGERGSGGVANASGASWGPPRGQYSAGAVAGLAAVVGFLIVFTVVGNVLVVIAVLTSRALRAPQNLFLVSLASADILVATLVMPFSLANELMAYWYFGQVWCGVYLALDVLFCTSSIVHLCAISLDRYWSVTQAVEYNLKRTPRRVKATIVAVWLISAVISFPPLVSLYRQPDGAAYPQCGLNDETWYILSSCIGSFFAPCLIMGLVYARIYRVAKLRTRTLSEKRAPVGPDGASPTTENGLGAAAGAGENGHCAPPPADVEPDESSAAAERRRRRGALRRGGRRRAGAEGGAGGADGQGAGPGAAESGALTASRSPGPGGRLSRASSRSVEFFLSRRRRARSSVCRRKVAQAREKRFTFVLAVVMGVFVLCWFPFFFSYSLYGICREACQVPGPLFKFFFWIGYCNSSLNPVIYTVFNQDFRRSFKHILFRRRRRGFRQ
Assay: compounds altering alpha2C-coupled GIRK flux – cell-based, HEK293 alpha2C/GIRK1/2, thallium flux, primary screen (AID 624);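 note: slope of fluorescence ratio to pre-addition baseline per second over 15 to 24 s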
Conditions: thallium flux BTC fluorescence, at 10 µM, actives lie on both sides
Lab note: write the figure by itself, no unit.

Below, each entry is followed by its recorded slope result.
O=C(CN1CCN(c2ccc(F)cc2)CC1)OCc1ccccc1; 0.00472
O=C(NCc1nc2ccccc2[nH]1)c1ccco1; 0.00592
COc1cc(-c2nc(S(=O)(=O)c3ccc(C)cc3)c(N(C)C)o2)cc(OC)c1OC; 0.00686
COc1ccc(CC(=O)OCn2nnc3ccccc3c2=O)cc1; 0.00601
CN(C)S(=O)(=O)c1ccc(S(=O)(=O)N(Cc2ccco2)Cc2ccccc2Cl)cc1; 0.00696
COc1ccc(C)cc1-n1nnnc1SC/C(O)=C(\C#N)c1nc2ccccc2[nH]1; 0.00627
COc1ccc2c3c(c(=O)oc2c1OCC(N)=O)CCCC3; 0.00487
Cc1ccccc1OCc1nnc(SCC(=O)NCc2ccccc2)n1C; 0.00575

I'd like to know its slope. The compound in question is CCn1c(CCC(=O)Nc2nc3c(s2)CCCC3)nc2cc(S(=O)(=O)N(C)C)ccc21
0.00627

Same read-out for COc1ccccc1OCc1nc2ccccc2[nH]1 ?
0.0055
